Taken from PubChem BioAssay AID1963847.

Test system: 415267-285-R-J2-PDC complex spheroid viability;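 further: luminescence used as stand-in measure of viable cells; spheroids exposed to compounds for one week before readout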
EXPERIMENT_DESCRIPTION: Anticancer human tumor 415267-285-R-J2-PDC patient-derived breast carcinoma cell line growth inhibition [POLQ]; active means viability on the fitted dose curve at most 10% of control; inactive means the rest
CONDITION_DESCRIPTION: second compound 0.1 µM; first compound 1 µM
Answer with one of the outcomes true (active), false (inactive)

# example entries with known answers
{"COMPOUND": "CCc1cc2c(N3CCc4c(cc(Cn5ccnc5)cc4-c4cn(C)nc4C(F)(F)F)C3=O)cc(C)nc2c(OC)n1 + Nc1ccc(C#CCN(C(=O)Cc2ncc(C(F)(F)F)cc2C(F)(F)F)c2ccc(F)cc2)nn1", "CAT": "false"}
{"COMPOUND": "C=CCn1c(=O)c2cnc(Nc3ccc(N4CCN(C)CC4)cc3)nc2n1-c1cccc(C(C)(C)O)n1 + Cc1cccc(N(C)C(=O)C2C(O)CCN2c2nc(C)cc(C(F)(F)F)c2C#N)c1", "CAT": "true"}
{"COMPOUND": "O=C(c1cc(Cc2n[nH]c(=O)c3ccccc23)ccc1F)N1CCN(C(=O)C2CC2)CC1 + Cc1cccc(N(C)C(=O)C2C(O)CCN2c2nc(C)cc(C(F)(F)F)c2C#N)c1", "CAT": "false"}
{"COMPOUND": "CC(C)n1c(=O)n(C)c2cnc3cc(F)c(-c4ccc(OCCCN5CCCCC5)nc4)cc3c21 + Cc1cccc(N(C)C(=O)C2C(O)CCN2c2nc(C)cc(C(F)(F)F)c2C#N)c1", "CAT": "false"}
{"COMPOUND": "CC1COCCN1c1cc(C2(O)CC3CCC(C2)O3)c2cnn(-c3ccn[nH]3)c2n1 (stereo unspecified) + Cc1cccc(N(C)C(=O)C2C(O)CCN2c2nc(C)cc(C(F)(F)F)c2C#N)c1", "CAT": "true"}
{"COMPOUND": "CNCc1ccc(-c2[nH]c3cc(F)cc4c3c2CCNC4=O)cc1 + Cc1cccc(N(C)C(=O)C2C(O)CCN2c2nc(C)cc(C(F)(F)F)c2C#N)c1", "CAT": "false"}

Called result for O=C(Nc1ccc(O)c(NS(=O)(=O)c2ccc(F)cc2)c1)c1ccc(-c2ccccc2)cc1 + Cc1cccc(N(C)C(=O)C2C(O)CCN2c2nc(C)cc(C(F)(F)F)c2C#N)c1
false

# iterate: CC1COCCN1c1cc(C2(O)CC3CCC(C2)O3)c2cnn(-c3ccn[nH]3)c2n1 (stereo unspecified) + Nc1ccc(C#CCN(C(=O)Cc2ncc(C(F)(F)F)cc2C(F)(F)F)c2ccc(F)cc2)nn1
true

# iterate: CCc1c2c(nc3ccc(O)cc13)-c1cc3c(c(=O)n1C2)COC(=O)[C@]3(O)CC + Nc1ccc(C#CCN(C(=O)Cc2ncc(C(F)(F)F)cc2C(F)(F)F)c2ccc(F)cc2)nn1
true

# iterate: CCc1cc2c(N3CCc4c(cc(Cn5ccnc5)cc4-c4cn(C)nc4C(F)(F)F)C3=O)ccnc2c(OC)n1 + Nc1ccc(C#CCN(C(=O)Cc2ncc(C(F)(F)F)cc2C(F)(F)F)c2ccc(F)cc2)nn1
false

# iterate: COc1ccc([C@@H](O)c2cc(-c3ncnc4cc(N5CCOCC5)ccc34)c(F)cc2Cl)nn1 + COC1C(OC(N)=O)C(O)C(Oc2ccc3c(O)c(NC(=O)c4ccc(O)c(CC=C(C)C)c4)c(=O)oc3c2C)OC1(C)C
false

# iterate: CC(C)n1c(=O)n(C)c2cnc3cc(F)c(-c4ccc(OCCCN5CCCCC5)nc4)cc3c21 + Nc1ccc(C#CCN(C(=O)Cc2ncc(C(F)(F)F)cc2C(F)(F)F)c2ccc(F)cc2)nn1
false

# iterate: COc1cccc2c1C(=O)c1c(O)c3c(c(O)c1C2=O)CC(O)(C(=O)CO)CC3OC1CC(N)C(O)C(C)O1 (stereo unspecified) + Cc1cccc(N(C)C(=O)C2C(O)CCN2c2nc(C)cc(C(F)(F)F)c2C#N)c1
true

# iterate: O=c1[nH]cc(F)c(=O)[nH]1 + COC1C(OC(N)=O)C(O)C(Oc2ccc3c(O)c(NC(=O)c4ccc(O)c(CC=C(C)C)c4)c(=O)oc3c2C)OC1(C)C
false

# iterate: CC1COCCN1c1cc(C2(S(C)(=N)=O)CC2)nc(-c2ccnc3[nH]ccc23)n1 (stereo unspecified) + COC1C(OC(N)=O)C(O)C(Oc2ccc3c(O)c(NC(=O)c4ccc(O)c(CC=C(C)C)c4)c(=O)oc3c2C)OC1(C)C
false

# iterate: COc1cccc(OCCCN)c1-c1cc(Nc2cnc(C#N)cn2)n[nH]1 + COC1C(OC(N)=O)C(O)C(Oc2ccc3c(O)c(NC(=O)c4ccc(O)c(CC=C(C)C)c4)c(=O)oc3c2C)OC1(C)C
true

# iterate: C=CCn1c(=O)c2cnc(Nc3ccc(N4CCN(C)CC4)cc3)nc2n1-c1cccc(C(C)(C)O)n1 + Nc1ccc(C#CCN(C(=O)Cc2ncc(C(F)(F)F)cc2C(F)(F)F)c2ccc(F)cc2)nn1
true

# iterate: CCCS(=O)(=O)Nc1ccc(F)c(C(=O)c2c[nH]c3ncc(-c4ccc(Cl)cc4)cc23)c1F + Cc1cccc(N(C)C(=O)C2C(O)CCN2c2nc(C)cc(C(F)(F)F)c2C#N)c1
false

# iterate: CC1COCCN1c1cc(-c2ccnn2C)c2ccnc(-c3ccn[nH]3)c2n1 (stereo unspecified) + Nc1ccc(C#CCN(C(=O)Cc2ncc(C(F)(F)F)cc2C(F)(F)F)c2ccc(F)cc2)nn1
true

# iterate: O=C(Nc1ccc(O)c(NS(=O)(=O)c2ccc(F)cc2)c1)c1ccc(-c2ccccc2)cc1 + Nc1ccc(C#CCN(C(=O)Cc2ncc(C(F)(F)F)cc2C(F)(F)F)c2ccc(F)cc2)nn1
false

# iterate: CNCc1ccc(-c2[nH]c3cc(F)cc4c3c2CCNC4=O)cc1 + Nc1ccc(C#CCN(C(=O)Cc2ncc(C(F)(F)F)cc2C(F)(F)F)c2ccc(F)cc2)nn1
false
